- test-description: Fluorescence assay protocol (absorption, excitation and emission scans in MeOH)
- Format: physicochemical
measure: Fluorescence Excitation Peak (nm)

• CCCCCCN(C)c1cc(O)c2c3c(c(=O)oc2c1)CCC(C)C3 (centres unmarked) = 368
• CCCCCCCN(C)c1cc(O)c2c(c1)oc(=O)c1ccc(OC)cc12 = 321
• CCCCCCCN(C)c1cc(O)c2c(c1)oc(=O)c1ccc(O)cc12 = 320
• CCCCCCCC(C)(C)c1cc(OC)c2c3c(c(=O)oc2c1)CCC(C)C3 (centres unmarked) = 330
• CCCCCCCN(C)c1cc(OC)c2c(c1)oc(=O)c1ccc(C)cc12 = 405
• CCCCCCCN(C)c1cc(O)c2c(c1)oc(=O)c1ccc(C)cc12 = 319
• CCCCCC(C)Oc1cc(O)c2c3c(c(=O)oc2c1)CCC(C)C3 (centres unmarked) = 326
• CCCCCCCN(C)c1cc(O)c2c3c(c(=O)oc2c1)CCC(C)C3 (centres unmarked) = 367
